Where do these numbers come from? They come from PubChem BioAssay AID1963433.

System: 772245-204-R-J1-PDC complex spheroid growth
Assay: Anticancer human tumor 772245-204-R-J1-PDC patient-derived rhabdomyosarcoma cell line growth inhibition [Asc]
Settings: second compound 0.949 µM; first compound 0.0316 µM; active compounds read low
Field: viability, T/C. Provide a value for each of the compounds that follow.

Fill in viability, T/C for each of the 7 compounds listed.
1. Cn1ncnc1[C@H]1c2n[nH]c(=O)c3cc(F)cc(c23)N[C@@H]1c1ccc(F)cc1 + CCN1C(C(=O)NC23CCC(C(=O)O)(CC2)CC3)C(c2cccc(Cl)c2F)C2(C(=O)Nc3cc(Cl)ccc32)C12CCCCC2
2. O=C(c1cc(Cc2n[nH]c(=O)c3ccccc23)ccc1F)N1CCN(C(=O)C2CC2)CC1 + CCN1C(C(=O)NC23CCC(C(=O)O)(CC2)CC3)C(c2cccc(Cl)c2F)C2(C(=O)Nc3cc(Cl)ccc32)C12CCCCC2
3. CCN1CCN(Cc2ccc(Nc3ncc(F)c(-c4cc(F)c5nc(C)n(C(C)C)c5c4)n3)nc2)CC1 + CCN1C(C(=O)NC23CCC(C(=O)O)(CC2)CC3)C(c2cccc(Cl)c2F)C2(C(=O)Nc3cc(Cl)ccc32)C12CCCCC2
4. NC1CCC(NC2CC2c2ccccc2)CC1 (stereo not given) + CCN1C(C(=O)NC23CCC(C(=O)O)(CC2)CC3)C(c2cccc(Cl)c2F)C2(C(=O)Nc3cc(Cl)ccc32)C12CCCCC2
5. CNC(C)C(=O)NC1CN(S(=O)(=O)c2cccc(S(=O)(=O)N3CCC4CCC(C(=O)NC(c5ccccc5)c5ccccc5)N4C(=O)C(NC(=O)C(C)NC)C3)c2)CCC2CCC(C(=O)NC(c3ccccc3)c3ccccc3)N2C1=O (stereo not given) + CCN1C(C(=O)NC23CCC(C(=O)O)(CC2)CC3)C(c2cccc(Cl)c2F)C2(C(=O)Nc3cc(Cl)ccc32)C12CCCCC2
6. C#Cc1c(F)ccc2cc(O)cc(-c3ncc4c(N5CC6CCC(C5)N6)nc(OCC56CCCN5CC(F)C6)nc4c3F)c12 (stereo not given) + CCN1C(C(=O)NC23CCC(C(=O)O)(CC2)CC3)C(c2cccc(Cl)c2F)C2(C(=O)Nc3cc(Cl)ccc32)C12CCCCC2
7. O=C(c1ccc(F)c(F)c1Nc1ccc(I)cc1F)N1CC(O)([C@@H]2CCCCN2)C1 + CCN1C(C(=O)NC23CCC(C(=O)O)(CC2)CC3)C(c2cccc(Cl)c2F)C2(C(=O)Nc3cc(Cl)ccc32)C12CCCCC2

Reply:
1. 75.4%
2. 101%
3. 100%
4. 95.1%
5. 78.8%
6. 90%
7. 115%

Fill in viability, T/C for each of the 3 compounds listed.
1. C=CC(=O)N1CCN(c2nc(=O)n(-c3c(C)ccnc3C(C)C)c3nc(-c4c(O)cccc4F)c(F)cc23)C(C)C1 (stereo not given) + CCN1C(C(=O)NC23CCC(C(=O)O)(CC2)CC3)C(c2cccc(Cl)c2F)C2(C(=O)Nc3cc(Cl)ccc32)C12CCCCC2
2. C=C(F)C(=O)N1CCN(c2nc(OCC3CCCN3C)nc3c2CCN(c2cccc4cccc(Cl)c24)C3)CC1CC#N (stereo not given) + CCN1C(C(=O)NC23CCC(C(=O)O)(CC2)CC3)C(c2cccc(Cl)c2F)C2(C(=O)Nc3cc(Cl)ccc32)C12CCCCC2
3. COc1c(OCCCN2CCOCC2)ccc2c3n(c(=NC(=O)c4cnc(N)nc4)nc12)CCN3 + CCN1C(C(=O)NC23CCC(C(=O)O)(CC2)CC3)C(c2cccc(Cl)c2F)C2(C(=O)Nc3cc(Cl)ccc32)C12CCCCC2

Reply:
1: 111%; 2: 92.3%; 3: 77.2%

----------
Field: viability, T/C. Provide a value for each of the molecules that follow.
Tested on: 772245-204-R-J1-PDC complex spheroid growth
Test: Anticancer human tumor 772245-204-R-J1-PDC cell line growth inhibition [Asc];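 further: compound exposure lasted seven days; 100% = DMSO vehicle control viability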
Conditions: second compound 0.316 µM; first compound 3 µM; active compounds read low

Worked examples follow.
>  <molecule>
Cc1nc(N2CCC3(CC2)COC(C)C3N)c(CO)nc1Sc1ccnc(N)c1Cl (centres undefined) + Cc1c(S(C)(=O)=O)c(-c2cc(F)cc(N3CCN(c4ccc(NS(=O)(=O)c5ccc(NC(CCN6CCC(C(=O)OCCCP(=O)(O)O)CC6)CSc6ccccc6)c(S(=O)(=O)C(F)(F)F)c5)cc4)CC3)c2)c(-c2ccc(Cl)cc2)n1C(C)C

>  <experimental.system>
772245-204-R-J1-PDC complex spheroid growth

>  <viability, T/C>
31.2%

$$$$
>  <molecule>
CCN1C(C(=O)NC23CCC(C(=O)O)(CC2)CC3)C(c2cccc(Cl)c2F)C2(C(=O)Nc3cc(Cl)ccc32)C12CCCCC2 (centres undefined) + Cc1c(S(C)(=O)=O)c(-c2cc(F)cc(N3CCN(c4ccc(NS(=O)(=O)c5ccc(NC(CCN6CCC(C(=O)OCCCP(=O)(O)O)CC6)CSc6ccccc6)c(S(=O)(=O)C(F)(F)F)c5)cc4)CC3)c2)c(-c2ccc(Cl)cc2)n1C(C)C

>  <experimental.system>
772245-204-R-J1-PDC complex spheroid growth

>  <viability, T/C>
13.4%

$$$$
>  <molecule>
Cc1nc(N2CCC3(CC2)COC(C)C3N)c(CO)nc1Sc1ccnc(N)c1Cl (centres undefined) + CNC(C)C(=O)NC1CN(S(=O)(=O)c2cccc(S(=O)(=O)N3CCC4CCC(C(=O)NC(c5ccccc5)c5ccccc5)N4C(=O)C(NC(=O)C(C)NC)C3)c2)CCC2CCC(C(=O)NC(c3ccccc3)c3ccccc3)N2C1=O

>  <experimental.system>
772245-204-R-J1-PDC complex spheroid growth

>  <viability, T/C>
74.7%

$$$$

// switching to the query molecule
Task item: Please look at CCN1C(C(=O)NC23CCC(C(=O)O)(CC2)CC3)C(c2cccc(Cl)c2F)C2(C(=O)Nc3cc(Cl)ccc32)C12CCCCC2 (centres undefined) + CNC(C)C(=O)NC1CN(S(=O)(=O)c2cccc(S(=O)(=O)N3CCC4CCC(C(=O)NC(c5ccccc5)c5ccccc5)N4C(=O)C(NC(=O)C(C)NC)C3)c2)CCC2CCC(C(=O)NC(c3ccccc3)c3ccccc3)N2C1=O and tell me its recorded viability, T/C on 772245-204-R-J1-PDC complex spheroid growth.
Reply: 105%

----------
Test system: 772245-204-R-J1-PDC complex spheroid growth
Assay: Anticancer human tumor 772245-204-R-J1-PDC cell line growth inhibition [Asc];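 further: compound exposure lasted seven days; 100% = DMSO vehicle control viability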
Conditions: second compound 1 µM; first compound 0.01 µM; active compounds read low
Field: viability, T/C. Provide a value for each of the compounds that follow.

Worked examples follow.
>  <compound>
CNC(C)C(=O)NC1CN(S(=O)(=O)c2cccc(S(=O)(=O)N3CCC4CCC(C(=O)NC(c5ccccc5)c5ccccc5)N4C(=O)C(NC(=O)C(C)NC)C3)c2)CCC2CCC(C(=O)NC(c3ccccc3)c3ccccc3)N2C1=O (stereo not drawn) + Cc1c(S(C)(=O)=O)c(-c2cc(F)cc(N3CCN(c4ccc(NS(=O)(=O)c5ccc(NC(CCN6CCC(C(=O)OCCCP(=O)(O)O)CC6)CSc6ccccc6)c(S(=O)(=O)C(F)(F)F)c5)cc4)CC3)c2)c(-c2ccc(Cl)cc2)n1C(C)C

>  <viability, T/C>
53.5%

$$$$
>  <compound>
NC1CCC(NC2CC2c2ccccc2)CC1 (stereo not drawn) + Cc1c(S(C)(=O)=O)c(-c2cc(F)cc(N3CCN(c4ccc(NS(=O)(=O)c5ccc(NC(CCN6CCC(C(=O)OCCCP(=O)(O)O)CC6)CSc6ccccc6)c(S(=O)(=O)C(F)(F)F)c5)cc4)CC3)c2)c(-c2ccc(Cl)cc2)n1C(C)C

>  <viability, T/C>
24.2%

$$$$

Task item: Name the recorded viability, T/C of the item Cn1ncnc1[C@H]1c2n[nH]c(=O)c3cc(F)cc(c23)N[C@@H]1c1ccc(F)cc1 + CNC(C)C(=O)NC1CN(S(=O)(=O)c2cccc(S(=O)(=O)N3CCC4CCC(C(=O)NC(c5ccccc5)c5ccccc5)N4C(=O)C(NC(=O)C(C)NC)C3)c2)CCC2CCC(C(=O)NC(c3ccccc3)c3ccccc3)N2C1=O in your answer.
Reply: 85.3%

----------
System: 772245-204-R-J1-PDC complex spheroid growth
Test: Anticancer human tumor 772245-204-R-J1-PDC cell line growth inhibition [Asc];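 further: compound exposure lasted seven days; 100% = DMSO vehicle control viability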
Details: second compound 0.0949 µM; first compound 10 µM; active compounds read low
metric.name: viability, T/C (%)
Numbers only, in %.

>  <molecule>
O=C(c1cc(Cc2n[nH]c(=O)c3ccccc23)ccc1F)N1CCN(C(=O)C2CC2)CC1 + CCN1C(C(=O)NC23CCC(C(=O)O)(CC2)CC3)C(c2cccc(Cl)c2F)C2(C(=O)Nc3cc(Cl)ccc32)C12CCCCC2

>  <experimental.system>
772245-204-R-J1-PDC complex spheroid growth

>  <unit.tag>
%

>  <viability, T/C>
72

$$$$
>  <molecule>
C#Cc1c(F)ccc2cc(O)cc(-c3ncc4c(N5CC6CCC(C5)N6)nc(OCC56CCCN5CC(F)C6)nc4c3F)c12 (centres undefined) + CCN1C(C(=O)NC23CCC(C(=O)O)(CC2)CC3)C(c2cccc(Cl)c2F)C2(C(=O)Nc3cc(Cl)ccc32)C12CCCCC2

>  <experimental.system>
772245-204-R-J1-PDC complex spheroid growth

>  <unit.tag>
%

>  <viability, T/C>
78.4

$$$$
>  <molecule>
C=CC(=O)N1CCN(c2nc(=O)n(-c3c(C)ccnc3C(C)C)c3nc(-c4c(O)cccc4F)c(F)cc23)C(C)C1 (centres undefined) + CCN1C(C(=O)NC23CCC(C(=O)O)(CC2)CC3)C(c2cccc(Cl)c2F)C2(C(=O)Nc3cc(Cl)ccc32)C12CCCCC2

>  <experimental.system>
772245-204-R-J1-PDC complex spheroid growth

>  <unit.tag>
%

>  <viability, T/C>
103

$$$$

// switching to the query molecule
Task item: Name the recorded viability, T/C of the item C=C(F)C(=O)N1CCN(c2nc(OCC3CCCN3C)nc3c2CCN(c2cccc4cccc(Cl)c24)C3)CC1CC#N (centres undefined) + CCN1C(C(=O)NC23CCC(C(=O)O)(CC2)CC3)C(c2cccc(Cl)c2F)C2(C(=O)Nc3cc(Cl)ccc32)C12CCCCC2 in your answer.
Reply: 0.17
